What GI50 was measured for each of the following?
Tested on: HOP-62
Assay summary: NCI tumour cell line growth inhibition, 48 h
Activity calls are given as the source filed them. Rule as the data show it: active = GI50 up to about 1.1 µM and inactive = higher.

[
  {
    "Compound": "O=C(/C=C(\\O)c1cc(-c2ccccc2)n(-c2ccccc2)n1)c1ccccc1",
    "Result": "3.46 µM (inactive)"
  },
  {
    "Compound": "N#C/N=C(/N)NCN/C(N)=N\\C#N",
    "Result": "> 100 µM (inactive)"
  },
  {
    "Compound": "CC1=CCP(C(F)(F)F)P(C(F)(F)F)C1 (stereo not drawn)",
    "Result": "> 100 µM (inactive)"
  },
  {
    "Compound": "CCC(=O)NCCc1c[nH]c2ccc(OC)cc12",
    "Result": "> 100 µM (inactive)"
  },
  {
    "Compound": "CC(C)Oc1c(C2(c3ccccc3O)SCCCS2)c(=O)c1=O",
    "Result": "> 100 µM (inactive)"
  }
]

For every item below, please supply its GI50.
1. CC(C)CCNC(=O)C(CC(C)C)NC(=O)[C@H]1O[C@@H]1C(=O)O (stereo partly drawn)
2. O=C(c1ccccc1)n1cc(/C=C/[N+](=O)[O-])c2ccccc21
3. COC(O)C(=O)c1ccc2c(c1)CC1(C2)Cc2cc3c(cc2C1=O)CCC3 (stereo not drawn)

> 100 µM (inactive)
> 100 µM (inactive)
19.5 µM (inactive)
